target: human leukocyte elastase (Homo sapiens); assay: in vitro human leukocyte elastase inhibiting activity (fluorogenic substrate, method of JP-A-2-101017 with slight modification); assay type: biochemical; conditions: 50% inhibitory concentration; substrate methoxysuccinyl-Ala-Ala-Pro-Val-7-amido-4-methylcoumarin; 0.2 M Tris-hydrochloride buffer (0.02 M CaCl2, 0.005% Triton X-100), pH 7.2; compound and enzyme incubated at 25°C for 20 minutes; read-out: IC50
Just so you know, the groups by IC50 go like this: class 1 = under 9 nM, class 2 = from 9 nM up to 50 nM, class 3 = 50 nM and over

[
  {
    "compound": "CCCC(=O)Nc1ccc(C(=O)Oc2cc(Cl)cc(Cl)c2)cc1",
    "class": "class 1"
  },
  {
    "compound": "COc1cc(OC)cc(OC(=O)c2ccc(NC(=O)C(C)C)cc2)c1",
    "class": "class 3"
  },
  {
    "compound": "CCCCCNC(=O)Nc1ccc(C(=O)Oc2cc(Cl)cc(Cl)c2)cc1",
    "class": "class 3"
  },
  {
    "compound": "CC(C)C(=O)Nc1ccc(C(=O)Oc2cc(Cl)cc(OS(=O)(=O)c3ccccc3)c2)cc1",
    "class": "class 2"
  },
  {
    "compound": "CC(C)(CC(=O)Nc1ccc(C(=O)Oc2cc(Cl)cc(Cl)c2)cc1)C(=O)O",
    "class": "class 2"
  },
  {
    "compound": "CCC(=O)Nc1ccc(C(=O)Oc2cc(Cl)cc(Cl)c2)cc1",
    "class": "class 1"
  },
  {
    "compound": "CCCCNC(=O)Nc1ccc(C(=O)Oc2cc(Cl)cc(Cl)c2)cc1",
    "class": "class 2"
  },
  {
    "compound": "O=C(Oc1cc(Cl)cc(Cl)c1)c1ccc(NC(=O)C2CCCCC2C(=O)O)cc1 (stereo not drawn)",
    "class": "class 2"
  },
  {
    "compound": "CC(C)C(=O)Nc1ccc(C(=O)Oc2ccccc2C#N)cc1",
    "class": "class 2"
  },
  {
    "compound": "CC(C)C(=O)Nc1ccc(C(=O)Oc2cc(Cl)cc(OCc3ccccc3)c2)cc1",
    "class": "class 2"
  },
  {
    "compound": "Cc1ccc([N+](=O)[O-])c(OC(=O)c2ccc(NC(=O)C(C)C)cc2)c1",
    "class": "class 2"
  },
  {
    "compound": "CC(C)(C)C(=O)Nc1ccc(C(=O)Oc2cc(F)ccc2[N+](=O)[O-])cc1",
    "class": "class 1"
  },
  {
    "compound": "CC(C)(C)C(=O)Nc1ccc(C(=O)Oc2cc(Cl)cc(Cl)c2)cc1",
    "class": "class 1"
  },
  {
    "compound": "O=C(Oc1cc(Cl)cc(Cl)c1)c1ccc(NC(=O)C2CC2)cc1",
    "class": "class 1"
  },
  {
    "compound": "CS(=O)(=O)Nc1ccc(C(=O)Oc2cc(Cl)cc(Cl)c2)cc1",
    "class": "class 3"
  },
  {
    "compound": "O=C(Oc1cc(Cl)cc(Cl)c1)c1ccc(NC(=O)C(Cl)(Cl)Cl)cc1",
    "class": "class 2"
  },
  {
    "compound": "O=C(Oc1cc(Cl)cc(Cl)c1)c1ccc(NC(=O)C(F)(F)F)cc1",
    "class": "class 3"
  },
  {
    "compound": "O=C(Cc1cccs1)Nc1ccc(C(=O)Oc2cc(Cl)cc(Cl)c2)cc1",
    "class": "class 3"
  },
  {
    "compound": "CC(C)C(=O)Nc1ccc(C(=O)Oc2cc(C(=O)O)ccc2[N+](=O)[O-])cc1",
    "class": "class 1"
  },
  {
    "compound": "CCCCC(=O)Nc1ccc(C(=O)Oc2cc(Cl)cc(Cl)c2)cc1",
    "class": "class 2"
  },
  {
    "compound": "O=C(O)CCCC(=O)Nc1ccc(C(=O)Oc2cc(Cl)cc(Cl)c2)cc1",
    "class": "class 1"
  },
  {
    "compound": "CC(C)C(=O)Nc1ccc(C(=O)Oc2cccc(O)c2[N+](=O)[O-])cc1",
    "class": "class 3"
  },
  {
    "compound": "CC(C)C(=O)Nc1ccc(C(=O)Oc2cc(Cl)cc(OS(=O)(=O)c3cccs3)c2)cc1",
    "class": "class 2"
  },
  {
    "compound": "CC(C)C(=O)Nc1ccc(C(=O)Oc2cccc(F)c2F)cc1",
    "class": "class 3"
  },
  {
    "compound": "CC(C)C(=O)Nc1ccc(C(=O)Oc2cc(O)cc(Cl)c2)cc1",
    "class": "class 3"
  },
  {
    "compound": "CC(C)NC(=O)Nc1ccc(C(=O)Oc2cc(Cl)cc(Cl)c2)cc1",
    "class": "class 2"
  },
  {
    "compound": "CC(C)C(=O)Nc1ccc(C(=O)Oc2c(F)cccc2F)cc1",
    "class": "class 2"
  },
  {
    "compound": "O=C(Oc1cc(Cl)cc(Cl)c1)c1ccc(N2C(=O)CCC2=O)cc1",
    "class": "class 3"
  },
  {
    "compound": "CC(C)(C)OC(=O)Nc1ccc(C(=O)Oc2cc(C=O)ccc2[N+](=O)[O-])cc1",
    "class": "class 1"
  },
  {
    "compound": "CC(C)C(=O)Nc1ccc(C(=O)Oc2cccc(F)c2)cc1",
    "class": "class 3"
  },
  {
    "compound": "COC(=O)Nc1ccc(C(=O)Oc2cc(Cl)cc(Cl)c2)cc1",
    "class": "class 2"
  },
  {
    "compound": "CC(C)C(=O)Nc1ccc(C(=O)Oc2cc(Cl)cc(OC(=O)C3CC3)c2)cc1",
    "class": "class 1"
  },
  {
    "compound": "COc1cc(Cl)cc(OC(=O)c2ccc(NC(=O)C(C)C)cc2)c1",
    "class": "class 2"
  },
  {
    "compound": "CC(C)C(=O)Nc1ccc(C(=O)Oc2cccc([N+](=O)[O-])c2)cc1",
    "class": "class 3"
  },
  {
    "compound": "CC(C)C(=O)Nc1ccc(C(=O)Oc2cc(F)ccc2[N+](=O)[O-])cc1",
    "class": "class 1"
  },
  {
    "compound": "CC(C)(C)C(=O)Nc1ccc(C(=O)Oc2cc(Cl)cc(OC(=O)C3CC3)c2)cc1",
    "class": "class 1"
  }
]

###

target: human leukocyte elastase (Homo sapiens, UniProt P08246); assay: in vitro human leukocyte elastase inhibiting activity (fluorogenic substrate, method of JP-A-2-101017 with slight modification); format: biochemical; conditions: 50% inhibitory concentration; substrate methoxysuccinyl-Ala-Ala-Pro-Val-7-amido-4-methylcoumarin; 0.2 M Tris-hydrochloride buffer (0.02 M CaCl2, 0.005% Triton X-100), pH 7.2; compound and enzyme incubated at 25°C for 20 minutes; read-out: IC50
Sequence (P08246 30-267): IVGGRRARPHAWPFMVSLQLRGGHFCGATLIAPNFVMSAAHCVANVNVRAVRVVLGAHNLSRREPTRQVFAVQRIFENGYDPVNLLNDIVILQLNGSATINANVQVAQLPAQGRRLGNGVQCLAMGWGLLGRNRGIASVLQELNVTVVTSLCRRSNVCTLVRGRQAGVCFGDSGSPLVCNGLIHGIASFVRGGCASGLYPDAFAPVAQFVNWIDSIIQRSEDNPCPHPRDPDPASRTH
Entries and their IC50

[
  {
    "sample_smiles": "CC(C)C(=O)Nc1ccc(C(=O)Oc2cc(F)cc(F)c2)cc1",
    "target": "human leukocyte elastase (Homo sapiens, UniProt P08246)",
    "units": "nM",
    "IC50": 26
  },
  {
    "sample_smiles": "CC(C)C(=O)Nc1ccc(C(=O)Oc2cc(Cl)cc(OS(=O)(=O)C=Cc3ccccc3)c2)cc1",
    "target": "human leukocyte elastase (Homo sapiens, UniProt P08246)",
    "units": "nM",
    "IC50": 24
  },
  {
    "sample_smiles": "CC(C)(CC#N)C(=O)Nc1ccc(C(=O)Oc2cc(Cl)cc(Cl)c2)cc1",
    "target": "human leukocyte elastase (Homo sapiens, UniProt P08246)",
    "units": "nM",
    "IC50": 6.7
  },
  {
    "sample_smiles": "CCNC(=O)Nc1ccc(C(=O)Oc2cc(Cl)cc(Cl)c2)cc1",
    "target": "human leukocyte elastase (Homo sapiens, UniProt P08246)",
    "units": "nM",
    "IC50": 21
  },
  {
    "sample_smiles": "CC(C)C(=O)Nc1ccc(C(=O)Oc2cccc(C(F)(F)F)c2)cc1",
    "target": "human leukocyte elastase (Homo sapiens, UniProt P08246)",
    "units": "nM",
    "IC50": 240
  },
  {
    "sample_smiles": "CC(=O)Oc1cc(Cl)cc(OC(=O)c2ccc(NC(=O)C(C)C)cc2)c1",
    "target": "human leukocyte elastase (Homo sapiens, UniProt P08246)",
    "units": "nM",
    "IC50": 3.3
  },
  {
    "sample_smiles": "CC(=O)OC(=O)Nc1ccc(C(=O)Oc2cc(Cl)cc(Cl)c2)cc1",
    "target": "human leukocyte elastase (Homo sapiens, UniProt P08246)",
    "units": "nM",
    "IC50": 31
  },
  {
    "sample_smiles": "CCCCCCCC(=O)Nc1ccc(C(=O)Oc2cc(Cl)cc(Cl)c2)cc1",
    "target": "human leukocyte elastase (Homo sapiens, UniProt P08246)",
    "units": "nM",
    "IC50": 110
  },
  {
    "sample_smiles": "O=C(Oc1cc(Cl)cc(Cl)c1)c1ccc(NS(=O)(=O)c2ccccc2)cc1",
    "target": "human leukocyte elastase (Homo sapiens, UniProt P08246)",
    "units": "nM",
    "IC50": 260
  }
]
